Test system: UO-31 renal
Test: NCI tumour cell line growth inhibition, 48 h; in the data active = GI50 below about 0.43 µM; inactive = the rest
Outcomes: 1.0 for active, 0.0 for inactive

INSERT INTO results (molecule, cat) VALUES
  ('COc1ccc(CN2c3ccccc3Sc3ccccc32)cc1O', 0.0),
  ('CN(CCOc1ccc(NS(C)(=O)=O)cc1)CCc1ccc(NS(C)(=O)=O)cc1', 0.0),
  ('C=C(CN1CCN(c2ccccn2)CC1)c1ccc(C(=O)Nc2ccccc2N)cc1', 0.0),
  ('COc1ccc2c(c1)[n+](=O)c(/C=C/C(=O)c1cc(OC)c(OC)c(OC)c1)c(C)n2[O-]', 0.0),
  ('O=C(NCc1cn(Cc2cccc(Oc3ccccc3)c2)nn1)c1cccnc1NCc1ccc(Cl)cc1', 0.0),
  ('O=C1c2ccccc2-c2c1c1ccccc1c(=O)n2CCNCCNCCNCCNCCn1c2c(c3ccccc3c1=O)C(=O)c1ccccc1-2', 0.0),
  ('N#C/C(=C/C=C/c1cccc(Cl)c1)S(=O)c1ccccc1 (stereo not given)', 1.0),
  ('CC(C)=CC(=O)OC1C2C(C)=CC(=O)C(O)C2(C)C2C3(O)OCC24C(CC(=O)OC14)C(C)C3O (stereo not given)', 0.0),
  ('COc1cc(C=NCC(=O)CSC(c2ccccc2)c2ccccc2)ccc1O', 0.0),
  ('CCOc1ccc2cc(-c3nn(CC4CCN(C)CC4)c4ncnc(N)c34)ccc2c1', 0.0),
  ('CCCCS(=O)(=O)c1cc(Nc2ccc(O)c3c2C(=O)c2ccccc2C3=O)ccc1C', 0.0),
  ('COc1c(OC2OC(C)C(O)C(O)C2O)c(OC)c2oc(-c3ccc(O)cc3)cc(=O)c2c1O (stereo not given)', 0.0),
  ('CCOC(=O)c1sc(NC(=O)COc2ccc(/C=C3\CCc4cc(OC)ccc4C3=O)cc2)nc1C', 0.0),
  ('COc1ccc(-c2cn3ccnc3c(-c3ccc(Cl)cc3)n2)cc1', 0.0),
  ('N.N.N.N.O=S([O-])[O-].[Co+3].[N-]=[N+]=[N-]', 0.0);
